- Assay Notes: Food effect studies: pharmacokinetics of mifepristone under fasting and fed conditions
- Assay type: in vivo, human
- Conditions: human, plasma, oral, 1200 mg/day, 1200 mg/day x 7 days, Fed 34% fat, healthy adults, Study 27; read-out: Cmax Geo Mean
Readout Label: Cmax (ng/mL)

INSERT INTO measurements (chemical_structure, readout_label, reported_result) VALUES
  ('CC#C[C@]1(O)CC[C@H]2[C@@H]3CCC4=CC(=O)CCC4=C3[C@@H](c3ccc(N(C)C)cc3)C[C@@]21C', 'Cmax', 5040);

----------
- Assay Notes: Food effect studies: pharmacokinetics of mifepristone under fasting and fed conditions
- Assay type: in vivo, human
- Conditions: human, plasma, oral, 1200 mg, 1200 mg single dose, Fast, healthy adults, Study 20; read-out: AUCinf Geo Mean
Readout Label: AUC(0-inf) (µg·h/mL)

INSERT INTO results (chemical_structure, readout_label, reported_result) VALUES
  ('CC#C[C@]1(O)CC[C@H]2[C@@H]3CCC4=CC(=O)CCC4=C3[C@@H](c3ccc(N(C)C)cc3)C[C@@]21C', 'AUC(0-inf)', 134);

----------
- Assay Notes: Food effect studies: pharmacokinetics of mifepristone under fasting and fed conditions
- Assay type: in vivo, human
- Conditions: human, plasma, oral, 1200 mg, 1200 mg single dose, Fed 50% fat, healthy adults, Study 20; read-out: AUCinf Geo Mean
Readout Label: AUC(0-inf) (µg·h/mL)

INSERT INTO measurements (molecule, readout_label, reported_result) VALUES
  ('CC#C[C@]1(O)CC[C@H]2[C@@H]3CCC4=CC(=O)CCC4=C3[C@@H](c3ccc(N(C)C)cc3)C[C@@]21C [Mifepristone]', 'AUC(0-inf)', 191);

----------
- Assay Notes: Food effect studies: pharmacokinetics of mifepristone under fasting and fed conditions
- Format: in vivo, human
- Conditions: human, plasma, oral, 600 mg/day, 600 mg/day x 7 days, Fast, healthy adults, historical Studies C-1073-05 and C-1073-300 Part II (reference for C3); read-out: Cmax Geo Mean
Readout Label: Cmax (ng/mL)

INSERT INTO measurements (chemical_structure, reported_result) VALUES
  ('CC#C[C@]1(O)CC[C@H]2[C@@H]3CCC4=CC(=O)CCC4=C3[C@@H](c3ccc(N(C)C)cc3)C[C@@]21C', 3040);

----------
- Assay Notes: Food effect studies: pharmacokinetics of mifepristone under fasting and fed conditions
- Assay type: in vivo, human
- Conditions: human, plasma, oral, 600 mg/day, 600 mg/day x 7 days, Fed 34% fat, healthy adults, Cohort 3 of CORT-108297-102; read-out: Cmax Geo Mean
Readout Label: Cmax (ng/mL)

INSERT INTO results (chemical_structure, readout_label, reported_result) VALUES
  ('CC#C[C@]1(O)CC[C@H]2[C@@H]3CCC4=CC(=O)CCC4=C3[C@@H](c3ccc(N(C)C)cc3)C[C@@]21C', 'Cmax', 4070);

----------
- Assay Notes: Food effect studies: pharmacokinetics of mifepristone under fasting and fed conditions
- Type: in vivo, human
- Conditions: human, plasma, oral, 600 mg, 600 mg single dose, Fast, healthy adults, Study 12; read-out: AUCinf Geo Mean
Readout Label: AUC(0-inf) (µg·h/mL)

INSERT INTO results (chemical_structure, output_unit, reported_result) VALUES
  ('CC#C[C@]1(O)CC[C@H]2[C@@H]3CCC4=CC(=O)CCC4=C3[C@@H](c3ccc(N(C)C)cc3)C[C@@]21C', 'µg·h/mL', 104);
